Test system: P388 leukemia ip, CD2F1 mice, survival T/C
Experiment: NCI In Vivo Anticancer Drug Screen. Data for tumor model P388 Leukemia (intraperitoneal) in CD2F1 (CDF1) mice
Details: endpoint: median survival time; dose: 50.0 mg/kg/injection; schedule: Q01DX005 (ip); vehicle: Klucel (hydroxypropylcellulose) (HPC); higher = longer survival
Inconclusive results and toxic doses are left out.
PARAMETER_MEASURED: T/C

Give T/C; test system P388 leukemia ip, CD2F1 mice, survival T/C; compound Cc1cc(C)nc(NCCCCNc2nc(C)cc(C)n2)n1 92 % of control

Give T/C; test system P388 leukemia ip, CD2F1 mice, survival T/C; compound c1ccc2c(c1)Cc1cc3ccccc3nc1-2 100 % of control

Give T/C; test system P388 leukemia ip, CD2F1 mice, survival T/C; compound NC(=O)C(Cc1ccc(O)cc1)NC(=O)OCc1ccccc1 (stereo unspecified) 97 % of control

Give T/C; test system P388 leukemia ip, CD2F1 mice, survival T/C; compound CC(C)c1ccc(Nc2n[nH]c(=S)s2)cc1 105 % of control

Give T/C; test system P388 leukemia ip, CD2F1 mice, survival T/C; compound CCNc1nc(NC(C)C)nc(-c2ccncc2)n1 101 % of control

Give T/C; test system P388 leukemia ip, CD2F1 mice, survival T/C; compound CC(C)C(NC(=O)OCC1c2ccccc2-c2ccccc21)C(=O)O (stereo unspecified) 104 % of control
